Below: a set of entries, each annotated with reported IC50.
target: Programmed cell death protein 1/Programmed cell death 1 ligand 1 (Homo sapiens, UniProt Q15116+Q9NZQ7); test: Inhibition of recombinant human PD-1/PD-L1 interaction incubated for 40 mins by HTRF binding assay; format: protein-complex assay
Sequence (Q15116 whole entry): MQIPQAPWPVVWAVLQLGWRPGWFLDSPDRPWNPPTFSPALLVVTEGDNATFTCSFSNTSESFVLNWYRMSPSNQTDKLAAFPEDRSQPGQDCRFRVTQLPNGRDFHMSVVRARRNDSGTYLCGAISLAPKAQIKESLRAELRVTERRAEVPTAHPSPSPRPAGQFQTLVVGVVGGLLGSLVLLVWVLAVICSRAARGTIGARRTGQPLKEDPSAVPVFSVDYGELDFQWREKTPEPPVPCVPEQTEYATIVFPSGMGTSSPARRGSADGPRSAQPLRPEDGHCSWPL
Sequence (Q9NZQ7 whole entry): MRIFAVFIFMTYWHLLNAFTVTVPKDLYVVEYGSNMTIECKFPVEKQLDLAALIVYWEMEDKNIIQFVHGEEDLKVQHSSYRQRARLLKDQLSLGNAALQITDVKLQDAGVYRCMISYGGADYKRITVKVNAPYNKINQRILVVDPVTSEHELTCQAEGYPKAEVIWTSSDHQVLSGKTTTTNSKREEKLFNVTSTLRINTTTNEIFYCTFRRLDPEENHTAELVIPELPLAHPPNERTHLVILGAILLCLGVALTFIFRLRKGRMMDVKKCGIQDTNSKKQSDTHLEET

Query block: Return IC50 for the following molecule: `Cc1c(NC(=O)c2cc(CN3CCCC[C@H]3C(=O)O)cn(C)c2=O)cccc1-c1ccccc1`
Result block: < 100 nM

Please turn your attention to the following entry.
Query block: Return IC50 for the following molecule: `N#Cc1c(NC(=O)c2ccc(CNCCO)cn2)cccc1-c1ccccc1`
Result block: < 10 nM

====

Target: V-type immunoglobulin domain-containing suppressor of T-cell activation (Homo sapiens)
Sequence (Q9H7M9 whole entry): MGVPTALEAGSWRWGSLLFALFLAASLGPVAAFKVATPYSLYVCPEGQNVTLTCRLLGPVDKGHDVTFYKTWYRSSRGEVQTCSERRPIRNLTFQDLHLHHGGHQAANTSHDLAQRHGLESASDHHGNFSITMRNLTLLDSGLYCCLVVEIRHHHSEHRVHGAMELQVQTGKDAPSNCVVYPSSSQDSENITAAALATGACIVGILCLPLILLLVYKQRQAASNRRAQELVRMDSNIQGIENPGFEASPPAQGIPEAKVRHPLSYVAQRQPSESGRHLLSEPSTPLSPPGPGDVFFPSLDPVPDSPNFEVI
Experiment: Inhibition of VISTA (unknown origin)
Measurement label: IC50 (nM)
Reply numerically in nM, unit not repeated.

Query block: Return IC50 for the following molecule: `C[C@H](O)[C@H](NC(=O)N[C@@H](CC(N)=O)c1nnc([C@@H](N)CO)s1)C(=O)O`
Result block: 17

====

target: Programmed cell death protein 1/Programmed cell death 1 ligand 1 (Homo sapiens, UniProt Q15116+Q9NZQ7); experiment: Inhibition of PD-1/PD-L1 interaction (unknown origin) incubated for 1 to 24 hrs by HTRF assay; format: protein-complex assay
Below: a set of entries, each annotated with reported pIC50.
Scale: pIC50 equals -log10([C]), with [C] in mol/L.

Query block: Return pIC50 for the following molecule: `COc1cc(/C=C/c2cccc(-c3ccccc3)c2)cc(OC)c1CN[C@](C)(CO)C(=O)O`
Result block: 7.32

Continuing:
Query block: Return pIC50 for the following molecule: Cc1c(/C=C/c2nc(CNC(C)(CO)C(=O)O)ccc2C(F)(F)F)cccc1-c1ccc2c(c1)OCCO2 (configuration not stated)
Result block: 7.74

====

Below: a set of entries, each annotated with reported pIC50.
target: Programmed cell death protein 1/Programmed cell death 1 ligand 1 (Homo sapiens, UniProt Q15116+Q9NZQ7); assay: Inhibition of PD-1/PD-L1 interaction (unknown origin); assay type: protein-complex assay
pIC50: −log10 of the molar value.

Query block: Return pIC50 for the following compound: `Cc1c(-c2ccccc2)cccc1-c1nc2cc(CNCCO)ccc2o1`
Result block: > 6.00

Please turn your attention to the following entry.
Query block: Return pIC50 for the following compound: N#Cc1c(-c2ccccc2)cccc1N1CCC(NC2CCCOC2)CC1 (configuration not stated)
Result block: > 6.00

====

molecular target: Programmed cell death protein 1/Programmed cell death 1 ligand 1 (Homo sapiens, UniProt Q15116+Q9NZQ7); assay: Inhibition of human PD-1/PD-L1 interaction by HTRF binding assay; format: protein-complex assay
Measurement label: pIC50
Scale: pIC50 equals -log10([C]), with [C] in mol/L.

Query block: Return pIC50 for the following molecule: `COc1nc(OCc2cccc(-c3cccc(COc4ccc(CNCCNC(C)=O)c(OC)n4)c3C)c2C)ccc1CNCCNC(C)=O`
Result block: 6.90
